# Tested on: Escherichia coli TOP10
# Assay Name: shrunken log2 fold change of peptide-encoding DNA abundance (4.5 h post-induction vs induction); higher = less antimicrobial activity (less host growth inhibition)
# Protocol Conditions: time post-induction: 4.5 h; library: site-saturation at positions 5, 18, 19, 20
Classes are defined on shrunken log2 fold change with ranges low interval (below -0.2), middle interval (-0.2 to below 0.05), high interval (0.05 or more)

Sequence Entry | Classification
RRIRNRPPRLPRPRPRPMNDPRP | high interval
RRIRARPPRLPRPRPRPSDIPRP | middle interval
RRIRMRPPRLPRPRPRPVDQPRP | middle interval
RRIRMRPPRLPRPRPRPVGRPRP | high interval
RRIRVRPPRLPRPRPRPCNEPRP | middle interval
RRIRARPPRLPRPRPRPDCTPRP | high interval
RRIRSRPPRLPRPRPRPNIIPRP | low interval
RRIRLRPPRLPRPRPRPTSIPRP | middle interval
RRIRHRPPRLPRPRPRPKHAPRP | high interval
RRIRTRPPRLPRPRPRPKMCPRP | high interval

Okay, now this sequence:
Challenge: Category of `RRIRARPPRLPRPRPRPKEMPRP` , please.
Response given: high interval

====

shrunken log2 fold change values, listed per item
# Tested on: Escherichia coli TOP10
# Assay Name: shrunken log2 fold change of peptide-encoding DNA abundance (4.5 h post-induction vs induction); higher = less antimicrobial activity (less host growth inhibition)
# Protocol Conditions: time post-induction: 4.5 h; library: site-saturation at positions 5, 18, 19, 20
Please respond with just the number, no unit label.

Examples from the recorded data:
Sequence Entry | shrunken log2 fold change
RRIRGRPPRLPRPRPRPWNSPRP | -0.00154
RRIRCRPPRLPRPRPRPHHYPRP | -0.685
RRIRHRPPRLPRPRPRPDRCPRP | -0.205
RRIRYRPPRLPRPRPRPCMIPRP | -0.731
RRIRRRPPRLPRPRPRPKHNPRP | 0.396
RRIRKRPPRLPRPRPRPWTNPRP | -0.0144
RRIRERPPRLPRPRPRPIYMPRP | -0.372
RRIRQRPPRLPRPRPRPYMIPRP | 0.00875

Challenge: Item `RRIRARPPRLPRPRPRPFGMPRP` with Escherichia coli TOP10 - shrunken log2 fold change?
Response given: 0.0196

Challenge: Ok, now `RRIRRRPPRLPRPRPRPMVWPRP`
Response given: 0.686

Challenge: Ok, now `RRIRVRPPRLPRPRPRPEAAPRP`
Response given: 0.635

====

# Tested on: Escherichia coli TOP10;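 further: peptides expressed intracellularly from a pBAD plasmid library in pooled LB shake-flask culture, induced with 0.3% L-arabinose, DNA abundance read by NGS, three biological replicates, DESeq2 with apeglm shrinkage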
# Assay Name: shrunken log2 fold change of peptide-encoding DNA abundance (4.5 h post-induction vs induction); higher = less antimicrobial activity (less host growth inhibition)
# Protocol Conditions: time post-induction: 4.5 h; library: site-saturation at positions 5, 18, 19, 20
shrunken log2 fold change values, listed per item
Please respond with just the number, no unit label.

Examples from the recorded data:
Sequence Entry | Assay System | Value Reported
RRIRNRPPRLPRPRPRPLYVPRP | Escherichia coli TOP10 | -0.641
RRIRDRPPRLPRPRPRPISYPRP | Escherichia coli TOP10 | -0.381
RRIRPRPPRLPRPRPRPHKFPRP | Escherichia coli TOP10 | -0.547

Challenge: Given the sequence `RRIRRRPPRLPRPRPRPHFRPRP` , what is its reported shrunken log2 fold change?
Response given: -0.0205

Challenge: Ok, now `RRIRYRPPRLPRPRPRPCATPRP`
Response given: 0.0757

Challenge: Ok, now `RRIRCRPPRLPRPRPRPHLGPRP`
Response given: -0.0785

Challenge: Ok, now `RRIRPRPPRLPRPRPRPKHFPRP`
Response given: 0.328

Challenge: Ok, now `RRIRPRPPRLPRPRPRPELPPRP`
Response given: 0.175

Challenge: Ok, now `RRIRGRPPRLPRPRPRPTNAPRP`
Response given: 0.923

Challenge: Ok, now `RRIRDRPPRLPRPRPRPNNDPRP`
Response given: 0.132

Challenge: Ok, now `RRIRSRPPRLPRPRPRPPYEPRP`
Response given: 0.0519
